Readings of Cmax for the listed compounds
Test: Cmax in rat at 10 mg/kg, po
Format: ADME, organism-based
Parameters: route oral, dose 10 mg/kg
Settings: in vivo
The reply should be a number in nM, with the unit left off.

So what does the record say about Cmax for O=C(C[C@@H]1Cc2cc(Cl)c3[nH]c(=O)oc3c2CN(CC(F)(F)F)C1=O)N1CCC(n2c(=O)[nH]c3ncccc32)CC1 ? 36

So what does the record say about Cmax for Cn1c(=O)[nH]c2c(Cl)cc3c(c21)CN(CC(F)(F)F)C(=O)[C@H](CC(=O)N1CCC(N2CCc4ccccc4NC2=O)CC1)C3 ? 96

So what does the record say about Cmax for Cn1c(=O)[nH]c2c(Cl)cc3c(c21)CN(CC(F)(F)F)C(=O)[C@H](CC(=O)N1CCC(N2CCc4ncccc4NC2=O)CC1)C3 ? 11

So what does the record say about Cmax for O=C(C[C@@H]1Cc2cc(Cl)c3c(c2CN(CC(F)(F)F)C1=O)C(F)(F)C(=O)N3)N1CCC(N2CCc3ccccc3NC2=O)CC1 ? 480

So what does the record say about Cmax for CCn1c(=O)[nH]c2c(Cl)cc3c(c21)CN(CC(F)(F)F)C(=O)[C@H](CC(=O)N1CCC(N2CCc4ccccc4NC2=O)CC1)C3 ? 230

So what does the record say about Cmax for O=C(C[C@@H]1Cc2cc(Cl)c3[nH]c(=O)n(CC(F)(F)F)c3c2CN(CC(F)(F)F)C1=O)N1CCC(n2c(=O)[nH]c3ncccc32)CC1 ? 3

So what does the record say about Cmax for O=C(C[C@@H]1Cc2cc(Cl)c3c(c2CN(CC(F)(F)F)C1=O)C(F)(F)C(=O)N3)N1CCC(n2c(=O)[nH]c3ncccc32)CC1 ? 4

So what does the record say about Cmax for O=C(C[C@@H]1Cc2cc(Cl)c3[nH]c(=O)[nH]c3c2CN(CC(F)(F)F)C1=O)N1CCC(N2CCc3ccccc3NC2=O)CC1 ? 3

Next compound, Cmax to be filled in.
So what does the record say about Cmax for O=C(C[C@@H]1Cc2cc(Cl)c3[nH]c(=O)n(CC(F)(F)F)c3c2CN(CC(F)(F)F)C1=O)N1CCC(N2CCc3ccccc3NC2=O)CC1 ? 270

----------
Readings of pKi for the listed compounds
Target: Calcitonin gene-related peptide type 1 receptor (Homo sapiens, UniProt O60894+Q16602)
Sequence (Q16602 whole entry, one chain of several): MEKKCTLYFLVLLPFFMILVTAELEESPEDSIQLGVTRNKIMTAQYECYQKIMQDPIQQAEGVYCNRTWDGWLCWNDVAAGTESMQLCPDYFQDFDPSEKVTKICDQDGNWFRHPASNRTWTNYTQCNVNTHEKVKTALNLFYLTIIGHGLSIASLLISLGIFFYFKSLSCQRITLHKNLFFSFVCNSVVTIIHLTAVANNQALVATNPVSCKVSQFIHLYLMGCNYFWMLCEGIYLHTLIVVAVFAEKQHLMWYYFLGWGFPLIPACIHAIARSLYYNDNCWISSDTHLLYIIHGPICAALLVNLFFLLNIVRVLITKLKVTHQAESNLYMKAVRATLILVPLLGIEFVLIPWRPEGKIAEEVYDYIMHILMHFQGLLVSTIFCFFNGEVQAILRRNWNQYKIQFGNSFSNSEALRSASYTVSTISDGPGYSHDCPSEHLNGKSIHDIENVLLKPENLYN
Test: Displacement of [125I]CGRP from human CGRP receptor in human SK-N-MC cells measured after 2 hrs by scintillation counting analysis
Scale note: pKi = -log10(concentration in M).

Below are worked cases with known answers.
So what does the record say about pKi for O=C(C[C@@H]1Cc2cc(Cl)c3c(c2CN(CC(F)(F)F)C1=O)C(F)(F)C(=O)N3)N1CCC(n2c(=O)[nH]c3ncccc32)CC1 ? 9.89

So what does the record say about pKi for O=C(C[C@@H]1Cc2cc(Cl)c3[nH]c(=O)oc3c2CN(CC(F)(F)F)C1=O)N1CCC(n2c(=O)[nH]c3ncccc32)CC1 ? 9.92

Others:
So what does the record say about pKi for O=C(C[C@@H]1Cc2cc(Cl)c3[nH]c(=O)n(CC(F)(F)F)c3c2CN(CC(F)(F)F)C1=O)N1CCC(n2c(=O)[nH]c3ncccc32)CC1 ? 10.59

So what does the record say about pKi for N#Cc1c[nH]c2c(Cl)cc3c(c12)CN(CC(F)(F)F)C(=O)[C@H](CC(=O)N1CCC(N2CCc4ccccc4NC2=O)CC1)C3 ? 10.22

So what does the record say about pKi for O=C(C[C@@H]1Cc2cc(Cl)c3[nH]ncc3c2CN(CC(F)(F)F)C1=O)N1CCC(N2CCc3ccccc3NC2=O)CC1 ? 10.34

So what does the record say about pKi for O=C(C[C@@H]1Cc2cc(Cl)c3[nH]ccc3c2CN(CC(F)(F)F)C1=O)N1CCC(N2CCc3ccccc3NC2=O)CC1 ? 9.07

So what does the record say about pKi for N#Cc1c[nH]c2c(Cl)cc3c(c12)CN(CC(F)(F)F)C(=O)[C@H](CC(=O)N1CCC(n2c(=O)[nH]c4ncccc42)CC1)C3 ? 10.22

So what does the record say about pKi for O=C(C[C@@H]1Cc2cc(Cl)c3[nH]c(=O)[nH]c3c2CN(CC(F)(F)F)C1=O)N1CCC(N2CCc3ccccc3NC2=O)CC1 ? 10.72

So what does the record say about pKi for O=C(C[C@@H]1Cc2cc(Cl)c3[nH]c(=O)n(CC(F)(F)F)c3c2CN(CC(F)(F)F)C1=O)N1CCC(N2CCc3ccccc3NC2=O)CC1 ? 10.70

So what does the record say about pKi for Cn1c(=O)[nH]c2c(Cl)cc3c(c21)CN(CC(F)(F)F)C(=O)[C@H](CC(=O)N1CCC(N2CCc4ccccc4NC2=O)CC1)C3 ? 10.82

So what does the record say about pKi for O=C(C[C@@H]1Cc2cc(Cl)c3[nH]cnc3c2CN(CC(F)(F)F)C1=O)N1CCC(N2CCc3ccccc3NC2=O)CC1 ? 9.77

So what does the record say about pKi for O=C(C[C@@H]1Cc2cc(Cl)c3[nH]nnc3c2CN(CC(F)(F)F)C1=O)N1CCC(n2c(=O)[nH]c3ncccc32)CC1 ? 9.36

src = ChEMBL document CHEMBL4834433
